Cited source: patent US20180258158A1

- experimental_target: T1, human serum albumin (HSA), full length (human, UniProt P02768 25-609)
- T1 construct: mature; Immobilized on CM5 chip (SPR) or coated on plates (ELISA)
- T1 sequence (P02768 25-609): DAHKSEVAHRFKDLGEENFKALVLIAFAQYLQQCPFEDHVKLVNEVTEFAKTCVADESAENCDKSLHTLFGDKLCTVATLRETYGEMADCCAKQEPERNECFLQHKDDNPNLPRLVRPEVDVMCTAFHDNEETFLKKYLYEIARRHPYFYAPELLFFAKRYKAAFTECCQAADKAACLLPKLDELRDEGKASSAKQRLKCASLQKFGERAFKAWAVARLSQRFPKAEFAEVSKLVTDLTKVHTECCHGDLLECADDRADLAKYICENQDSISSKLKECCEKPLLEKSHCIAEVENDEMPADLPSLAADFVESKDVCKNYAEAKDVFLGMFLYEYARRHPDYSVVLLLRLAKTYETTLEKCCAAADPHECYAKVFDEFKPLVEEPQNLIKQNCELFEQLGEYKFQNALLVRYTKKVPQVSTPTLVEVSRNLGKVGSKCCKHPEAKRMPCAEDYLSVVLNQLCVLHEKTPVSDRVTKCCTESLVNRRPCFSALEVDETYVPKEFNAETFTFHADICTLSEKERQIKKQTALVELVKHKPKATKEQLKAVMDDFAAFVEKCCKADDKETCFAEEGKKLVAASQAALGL
- assay_remarks: SPR off-rate, immobilized HSA, 500 nM Adnectin, 25 C
measurement_kind: koff (s⁻¹)

ADX_7016_E02 (L38T) (designed binder, Full His6-tagged entry; also called 6727_E08) MGVSDVPRDLEVVAATPTSLLISWDAPAVTVRYYRITYGREVQKYSDTGPLYIYQEFTVPGSKSTATISGLKPGVDYTITVYAVTGSGESPASSKPISINYRTEIDKPSQHHHHHH: 0.00815
ADX_6727_B04 (Y35S/K85S) (designed binder, Full His6-tagged entry) MGVSDVPRDLEVVAATPTSLLISWDAPAVTVRYYRITYGREVQKSSDLGPLYIYQEFTVPGSKSTATISGLKPGVDYTITVYAVTGSGESPASSSPISINYRTEIDKPSQHHHHHH: 0.0011
ADX_6727_F10 (Y35A/K85T) (designed binder, Full His6-tagged entry) MGVSDVPRDLEVVAATPTSLLISWDAPAVTVRYYRITYGREVQKASDLGPLYIYQEFTVPGSKSTATISGLKPGVDYTITVYAVTGSGESPASSTPISINYRTEIDKPSQHHHHHH: 0.00109
ADX_7016_G01 (Y44S) (designed binder, Full His6-tagged entry; also called 6727_G02) MGVSDVPRDLEVVAATPTSLLISWDAPAVTVRYYRITYGREVQKYSDLGPLYISQEFTVPGSKSTATISGLKPGVDYTITVYAVTGSGESPASSKPISINYRTEIDKPSQHHHHHH: 0.0015
